Notes on IC50 obtained with PI3K-alpha enzyme (Homo sapiens (Human), UniProt P42336).
Sequence (P42336 whole entry): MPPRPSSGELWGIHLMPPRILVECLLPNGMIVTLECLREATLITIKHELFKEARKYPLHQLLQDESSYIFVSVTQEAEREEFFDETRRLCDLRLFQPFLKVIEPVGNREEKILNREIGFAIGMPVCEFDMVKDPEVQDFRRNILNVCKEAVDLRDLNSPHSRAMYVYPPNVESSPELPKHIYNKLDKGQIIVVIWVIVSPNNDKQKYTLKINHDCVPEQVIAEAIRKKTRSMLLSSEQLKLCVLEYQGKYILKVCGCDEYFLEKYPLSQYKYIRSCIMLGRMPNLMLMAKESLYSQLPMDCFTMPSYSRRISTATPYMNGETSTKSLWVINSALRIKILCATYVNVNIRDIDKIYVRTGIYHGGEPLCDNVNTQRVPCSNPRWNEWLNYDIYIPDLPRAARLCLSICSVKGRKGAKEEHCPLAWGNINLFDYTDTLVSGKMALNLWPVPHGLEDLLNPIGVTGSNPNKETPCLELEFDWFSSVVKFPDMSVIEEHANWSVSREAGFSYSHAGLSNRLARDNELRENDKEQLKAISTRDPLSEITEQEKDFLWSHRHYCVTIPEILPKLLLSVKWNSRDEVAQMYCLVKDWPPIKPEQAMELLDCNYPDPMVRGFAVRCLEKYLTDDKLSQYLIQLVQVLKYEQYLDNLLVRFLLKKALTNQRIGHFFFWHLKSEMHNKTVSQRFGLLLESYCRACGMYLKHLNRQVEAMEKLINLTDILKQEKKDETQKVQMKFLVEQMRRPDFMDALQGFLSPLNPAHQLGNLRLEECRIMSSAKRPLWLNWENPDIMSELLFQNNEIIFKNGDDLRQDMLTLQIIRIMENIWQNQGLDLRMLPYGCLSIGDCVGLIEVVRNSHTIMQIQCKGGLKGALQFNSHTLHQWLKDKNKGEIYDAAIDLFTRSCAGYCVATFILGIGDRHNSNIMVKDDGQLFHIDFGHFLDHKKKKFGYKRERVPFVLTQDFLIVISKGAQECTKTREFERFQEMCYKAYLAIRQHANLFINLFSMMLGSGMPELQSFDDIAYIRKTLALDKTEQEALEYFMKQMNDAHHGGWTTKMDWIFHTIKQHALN
Sequence (P27986 whole entry partner): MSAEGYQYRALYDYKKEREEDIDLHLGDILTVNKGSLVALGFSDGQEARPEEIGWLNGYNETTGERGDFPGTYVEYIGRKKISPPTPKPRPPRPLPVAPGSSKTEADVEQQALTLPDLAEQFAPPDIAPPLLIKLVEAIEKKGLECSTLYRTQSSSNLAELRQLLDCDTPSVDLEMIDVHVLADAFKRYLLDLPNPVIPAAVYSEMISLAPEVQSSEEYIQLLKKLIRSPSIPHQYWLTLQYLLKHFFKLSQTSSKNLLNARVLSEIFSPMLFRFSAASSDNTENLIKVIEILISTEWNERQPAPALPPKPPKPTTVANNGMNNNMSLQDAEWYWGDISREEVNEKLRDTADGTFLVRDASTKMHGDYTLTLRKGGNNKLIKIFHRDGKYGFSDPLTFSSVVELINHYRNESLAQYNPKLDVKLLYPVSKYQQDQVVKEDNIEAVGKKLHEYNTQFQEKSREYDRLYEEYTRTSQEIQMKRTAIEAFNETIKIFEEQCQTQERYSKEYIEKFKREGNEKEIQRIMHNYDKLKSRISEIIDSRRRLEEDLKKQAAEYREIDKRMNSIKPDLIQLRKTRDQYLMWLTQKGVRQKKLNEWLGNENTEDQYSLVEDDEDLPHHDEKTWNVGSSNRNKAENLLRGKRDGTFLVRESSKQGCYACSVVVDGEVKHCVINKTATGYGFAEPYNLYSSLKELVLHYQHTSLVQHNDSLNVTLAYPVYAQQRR
I only need the number, in µM, no unit after it.

Qu. Please give measured IC50 of the following entry: `Nc1n[nH]c2c(N3CCOCC3)nc(-c3ccc(NC(=O)Nc4ccc(CO)c(C(F)(F)F)c4)cc3)nc12`
Ans. 0.228

Qu. For the compound `Nc1n[nH]c2c(N3CCOCC3)nc(-c3ccc(NC(=O)Nc4ccc(COCCN5CCOCC5)cc4)cc3)nc12` , give its reported IC50.
Ans. 0.0409

Qu. Provide one value: measured IC50 of `CC1(C)C(=O)Nc2cc(NC(=O)Nc3ccc(-c4nc(N5CCOCC5)c5[nH]nc(N)c5n4)cc3)ccc21`
Ans. 0.108
